Values from patent US8765748B2

Readings of IC50 for the listed compounds
system.under.test: human PLK4 (Homo sapiens)
Construct: amino terminal GST fusion of residues 1-391 of human PLK4; made in house; host or cells: E. coli
Sequence (O00444 1-391): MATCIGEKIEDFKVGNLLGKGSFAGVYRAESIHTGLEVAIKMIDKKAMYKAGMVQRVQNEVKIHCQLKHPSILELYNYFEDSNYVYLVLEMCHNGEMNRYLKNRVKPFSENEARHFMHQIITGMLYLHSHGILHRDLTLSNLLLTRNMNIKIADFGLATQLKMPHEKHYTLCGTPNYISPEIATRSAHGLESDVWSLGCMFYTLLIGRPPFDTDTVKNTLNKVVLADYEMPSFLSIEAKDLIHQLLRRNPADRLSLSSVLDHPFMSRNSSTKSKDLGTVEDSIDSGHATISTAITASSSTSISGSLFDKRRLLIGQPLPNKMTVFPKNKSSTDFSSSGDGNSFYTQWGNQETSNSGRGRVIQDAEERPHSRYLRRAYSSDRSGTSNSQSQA
protocol.description: PLK4 Inhibition Assay (indirect ELISA)
Assay type: biochemical
cond: 15 μM ATP, 4 nM GST-PLK4; read-out: PLK4 IC50 Ranges

Worked cases, IC50 given:
compound=COC(=O)c1ccc(/C=C/c2n[nH]c3cc(/C=C4\C(=O)Nc5ccccc54)ccc23)cc1 endpoint_name=IC50 endpoint_result="< 5 µM"
compound=O=C1Nc2ccc(F)cc2C1=Nc1ccc2[nH]ncc2c1 endpoint_name=IC50 endpoint_result="5 to 50 µM"
compound=CC(=O)Nc1ccc2c(c1)NC(=O)/C2=C/c1ccc2nn[nH]c2c1 endpoint_name=IC50 endpoint_result="5 to 50 µM"

Fill in the recorded IC50 for this compound, with human PLK4 (Homo sapiens) as test system: O=C1Nc2ccccc2C1=Cc1ccc2c(/C=C/c3ccccn3)n[nH]c2c1 (mixture of isomers) < 5 µM

---

system.under.test: p38d kinase (Homo sapiens, UniProt O15264)
Sequence (O15264 whole entry): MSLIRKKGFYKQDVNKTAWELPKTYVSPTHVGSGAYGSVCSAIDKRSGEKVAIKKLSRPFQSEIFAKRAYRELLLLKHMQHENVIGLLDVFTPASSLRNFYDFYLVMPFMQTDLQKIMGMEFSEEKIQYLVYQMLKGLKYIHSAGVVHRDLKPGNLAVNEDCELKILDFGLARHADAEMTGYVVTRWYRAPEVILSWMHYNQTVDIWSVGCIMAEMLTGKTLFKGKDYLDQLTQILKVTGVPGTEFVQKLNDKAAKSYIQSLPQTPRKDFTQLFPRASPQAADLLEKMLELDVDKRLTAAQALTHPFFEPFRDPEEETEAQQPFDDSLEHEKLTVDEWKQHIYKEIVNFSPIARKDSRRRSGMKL
protocol.description: Kinase Selectivity Assay (CEREP, HTRF)
Type: biochemical
cond: read-out: % Inhibition at 10 μM Concentration, p38delta
endpoint.name: inhibition at 10 µM (%)

Known inhibition at 10 µM results, listed for orientation:
molecule="COc1ccc2c(c1)C(=Cc1ccc3c(-c4ccc(N5CCN(C)CC5)nc4)n[nH]c3c1)C(=O)N2 (mixture of isomers)" system_under_test="p38d kinase (Homo sapiens, UniProt O15264)" unit_of_measurement=% endpoint_result=13
molecule=O=C1Nc2ccccc2/C1=C\c1ccc2cn[nH]c2c1 system_under_test="p38d kinase (Homo sapiens, UniProt O15264)" unit_of_measurement=% endpoint_result=-8
molecule="O=C1Nc2ccccc2C1=Cc1ccc2c(/C=C/c3ccccn3)n[nH]c2c1 (mixture of isomers)" system_under_test="p38d kinase (Homo sapiens, UniProt O15264)" unit_of_measurement=% endpoint_result=-5

P = O=C1Nc2ccccc2/C1=C\c1ccc2[nH]nnc2c1
Q = O=C1Nc2ccccc2/C1=C\c1ccc2c(/C=C/c3ccccc3Cl)n[nH]c2c1
Name the one with the greater inhibition at 10 µM value, either P or Q as given. Bench note: the answer is the label of the chosen record. Q
(Q: 3%, P: 0%)

---

SKBR3 breast cancer cell line: reported GI50 for various compounds.

What value of GI50 has been reported for the following compound? COc1ccc2c(c1)C(=Cc1ccc3c(-c4ccc(N5CCN(C)CC5)nc4)n[nH]c3c1)C(=O)N2 (mixture of isomers) < 5 µM

---

system.under.test: CaMK4 (Homo sapiens, UniProt Q16566)
Construct: CEREP, France (ran the assays)
Sequence (Q16566 whole entry): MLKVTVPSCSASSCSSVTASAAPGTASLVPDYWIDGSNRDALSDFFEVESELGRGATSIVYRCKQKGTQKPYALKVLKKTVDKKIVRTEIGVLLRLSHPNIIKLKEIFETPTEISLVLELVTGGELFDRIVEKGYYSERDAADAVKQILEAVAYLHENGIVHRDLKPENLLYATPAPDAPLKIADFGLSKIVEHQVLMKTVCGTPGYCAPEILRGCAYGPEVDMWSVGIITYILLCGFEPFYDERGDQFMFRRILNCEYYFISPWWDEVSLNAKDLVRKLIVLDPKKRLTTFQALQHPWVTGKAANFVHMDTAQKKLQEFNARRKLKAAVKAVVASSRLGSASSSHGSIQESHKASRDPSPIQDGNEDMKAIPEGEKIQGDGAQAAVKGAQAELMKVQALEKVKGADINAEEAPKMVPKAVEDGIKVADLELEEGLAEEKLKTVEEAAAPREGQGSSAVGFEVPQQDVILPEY
protocol.description: Kinase Selectivity Assay (CEREP, HTRF)
Format: biochemical
cond: read-out: % Inhibition at 10 μM Concentration, CaMK4
endpoint.name: inhibition at 10 µM (%)

The following compounds have reported results that may help.
compound="COc1ccc2c(c1)C(=Cc1ccc3c(-c4ccc(N5CCN(C)CC5)nc4)n[nH]c3c1)C(=O)N2 (mixture of isomers) [Example A97]" system_under_test="CaMK4 (Homo sapiens, UniProt Q16566)" endpoint_name="inhibition at 10 µM" endpoint_result=2
compound="O=C1Nc2ccccc2C1=Cc1ccc2c(/C=C/c3ccccn3)n[nH]c2c1 (mixture of isomers) [Example A41]" system_under_test="CaMK4 (Homo sapiens, UniProt Q16566)" endpoint_name="inhibition at 10 µM" endpoint_result=27
compound="O=C1Nc2ccccc2/C1=C\\c1ccc2cn[nH]c2c1 [Example A5]" system_under_test="CaMK4 (Homo sapiens, UniProt Q16566)" endpoint_name="inhibition at 10 µM" endpoint_result=26

P = O=C1Nc2ccccc2/C1=C\c1ccc2c(/C=C/c3ccccc3Cl)n[nH]c2c1 [Example A60]
Q = O=C1Nc2ccccc2/C1=C\c1ccc2[nH]nnc2c1 [Example A1]
Could you check which of P and Q has a smaller value for inhibition at 10 µM? Kindly give the label for the entry you pick. P

---

system.under.test: PDGFRβ (Homo sapiens, UniProt P09619)
Construct: purchased Millipore (assay service)
Sequence (P09619 33-1106): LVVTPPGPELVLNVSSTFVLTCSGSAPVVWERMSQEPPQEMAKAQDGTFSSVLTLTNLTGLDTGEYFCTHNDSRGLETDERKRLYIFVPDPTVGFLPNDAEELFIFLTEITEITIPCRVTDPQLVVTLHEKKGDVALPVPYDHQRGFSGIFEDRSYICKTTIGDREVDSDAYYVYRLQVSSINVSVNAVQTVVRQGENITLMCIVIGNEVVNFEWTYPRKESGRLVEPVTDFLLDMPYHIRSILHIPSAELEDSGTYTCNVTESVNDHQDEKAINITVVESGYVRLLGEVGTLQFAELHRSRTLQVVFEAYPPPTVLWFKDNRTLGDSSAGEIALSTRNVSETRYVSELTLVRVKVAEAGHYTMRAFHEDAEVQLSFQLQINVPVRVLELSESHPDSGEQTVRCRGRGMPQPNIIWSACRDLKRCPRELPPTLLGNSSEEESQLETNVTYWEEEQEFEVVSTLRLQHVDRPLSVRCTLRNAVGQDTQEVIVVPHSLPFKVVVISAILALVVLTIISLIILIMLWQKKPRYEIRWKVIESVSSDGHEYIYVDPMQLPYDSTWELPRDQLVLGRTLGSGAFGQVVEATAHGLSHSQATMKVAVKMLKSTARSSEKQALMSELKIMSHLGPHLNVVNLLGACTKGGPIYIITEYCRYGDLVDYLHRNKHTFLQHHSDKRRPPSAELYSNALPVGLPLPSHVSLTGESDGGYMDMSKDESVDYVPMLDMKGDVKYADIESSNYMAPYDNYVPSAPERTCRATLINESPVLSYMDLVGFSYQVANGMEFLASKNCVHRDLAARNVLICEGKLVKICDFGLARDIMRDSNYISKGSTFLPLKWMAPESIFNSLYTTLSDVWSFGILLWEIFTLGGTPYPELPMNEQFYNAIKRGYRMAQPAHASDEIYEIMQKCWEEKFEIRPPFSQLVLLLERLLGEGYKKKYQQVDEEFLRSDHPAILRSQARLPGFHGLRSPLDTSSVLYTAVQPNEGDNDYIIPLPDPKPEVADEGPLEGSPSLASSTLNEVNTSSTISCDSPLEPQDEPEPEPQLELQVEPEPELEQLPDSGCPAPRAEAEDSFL
protocol.description: Millipore kinase assay, radiolabelled phosphopeptide filter binding, IC50 estimate
Format: biochemical
cond: estimated from inhibition at three compound concentrations; ATP at the Km
pIC50: −log10 of the molar value.
Below is a list of entries, each paired with its recorded pIC50 value.

Use the examples below as a reference point.
molecule="CN(C)Cc1ccc(/C=C/c2n[nH]c3cc(C=C4C(=O)Nc5ccccc54)ccc23)cc1 (mixture of isomers) [Example A106, 2,2,2-trifluoroacetate]" endpoint_result="> 5.30"
molecule="COc1ccc2c(c1)C(=Cc1ccc3c(-c4ccc(N5CCN(C)CC5)nc4)n[nH]c3c1)C(=O)N2 (mixture of isomers) [Example A97]" endpoint_result="4.30 to 5.30"
molecule="O=C1Nc2ccccc2/C1=C\\c1ccc2c(/C=C/c3ccncc3)n[nH]c2c1 [Example A57]" endpoint_result="> 5.30"

# evaluate next
Suppose we examine the molecule O=C1Nc2ccccc2C1=Cc1ccc2c(/C=C/c3ccccn3)n[nH]c2c1 (mixture of isomers) [Example A41] ; what pIC50 value has been reported? > 5.30

---

system.under.test: Akt1/PKBa (Homo sapiens, UniProt P31749)
Construct: CEREP, France (ran the assays)
Sequence (P31749 whole entry): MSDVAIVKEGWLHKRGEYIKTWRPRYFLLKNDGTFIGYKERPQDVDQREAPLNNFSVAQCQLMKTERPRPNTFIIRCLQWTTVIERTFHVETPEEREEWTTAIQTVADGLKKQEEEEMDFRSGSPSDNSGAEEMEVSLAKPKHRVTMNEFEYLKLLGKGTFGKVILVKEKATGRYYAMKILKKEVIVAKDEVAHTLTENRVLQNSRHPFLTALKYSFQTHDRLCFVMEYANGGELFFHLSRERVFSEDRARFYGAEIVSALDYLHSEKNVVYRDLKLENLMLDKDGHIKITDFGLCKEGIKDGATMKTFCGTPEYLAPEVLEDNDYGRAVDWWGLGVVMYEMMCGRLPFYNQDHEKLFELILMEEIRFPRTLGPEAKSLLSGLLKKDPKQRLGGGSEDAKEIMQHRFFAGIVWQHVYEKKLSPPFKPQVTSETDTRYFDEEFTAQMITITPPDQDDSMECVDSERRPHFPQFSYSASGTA
protocol.description: Kinase Selectivity Assay (CEREP, HTRF)
Format: biochemical
cond: read-out: % Inhibition at 10 μM Concentration, Akt1/PKBalpha
endpoint.name: inhibition at 10 µM (%)

compound=O=C1Nc2ccccc2/C1=C\c1ccc2cn[nH]c2c1 endpoint_result=-4
compound="O=C1Nc2ccccc2C1=Cc1ccc2c(/C=C/c3ccccn3)n[nH]c2c1 (mixture of isomers)" endpoint_result=-3
compound="COc1ccc2c(c1)C(=Cc1ccc3c(-c4ccc(N5CCN(C)CC5)nc4)n[nH]c3c1)C(=O)N2 (mixture of isomers)" endpoint_result=-4

A = O=C1Nc2ccccc2/C1=C\c1ccc2[nH]nnc2c1
B = O=C1Nc2ccccc2/C1=C\c1ccc2c(/C=C/c3ccccc3Cl)n[nH]c2c1
Of the pair A and B , name the member with the lesser recorded inhibition at 10 µM. # respond with the chosen item's label B

---

system.under.test: Syk (Homo sapiens)
protocol.description: Kinase Selectivity Assay (CEREP, HTRF)
Format: biochemical
cond: read-out: % Inhibition at 10 μM Concentration, Syk
endpoint.name: inhibition at 10 µM (%)
Value expressed in %; do not type the unit.

Recorded results for 3 compounds are shown here.
compound="O=C1Nc2ccccc2/C1=C\\c1ccc2cn[nH]c2c1 [Example A5]" system_under_test="Syk (Homo sapiens)" endpoint_result=-3
compound="COc1ccc2c(c1)C(=Cc1ccc3c(-c4ccc(N5CCN(C)CC5)nc4)n[nH]c3c1)C(=O)N2 (mixture of isomers) [Example A97]" system_under_test="Syk (Homo sapiens)" endpoint_result=21
compound="O=C1Nc2ccccc2/C1=C\\c1ccc2[nH]nnc2c1 [Example A1]" system_under_test="Syk (Homo sapiens)" endpoint_result=-2

As a next step, examine the compound that follows.
For the compound O=C1Nc2ccccc2C1=Cc1ccc2c(/C=C/c3ccccn3)n[nH]c2c1 (mixture of isomers) [Example A41] , what inhibition at 10 µM is on record? 70

---

system.under.test: Fyn kinase (Homo sapiens, UniProt P06241)
Sequence (P06241 whole entry): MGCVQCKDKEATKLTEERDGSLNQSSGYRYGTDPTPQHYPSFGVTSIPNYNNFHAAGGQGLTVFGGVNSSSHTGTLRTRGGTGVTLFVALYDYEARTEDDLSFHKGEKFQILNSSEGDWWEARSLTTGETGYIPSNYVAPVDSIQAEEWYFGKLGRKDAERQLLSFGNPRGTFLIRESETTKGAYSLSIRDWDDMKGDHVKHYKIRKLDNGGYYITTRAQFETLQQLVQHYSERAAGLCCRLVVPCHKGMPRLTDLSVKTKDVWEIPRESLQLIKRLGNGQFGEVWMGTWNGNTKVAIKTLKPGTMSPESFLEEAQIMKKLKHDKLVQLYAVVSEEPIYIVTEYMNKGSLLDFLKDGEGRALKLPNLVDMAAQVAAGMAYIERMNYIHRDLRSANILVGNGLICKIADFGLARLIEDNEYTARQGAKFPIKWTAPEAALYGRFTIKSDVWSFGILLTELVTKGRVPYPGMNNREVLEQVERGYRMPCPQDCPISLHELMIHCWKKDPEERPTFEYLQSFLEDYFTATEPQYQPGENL
protocol.description: Kinase Selectivity Assay (CEREP, HTRF)
Assay type: biochemical
cond: read-out: % Inhibition at 10 μM Concentration, Fyn
endpoint.name: inhibition at 10 µM (%)

Example results:
compound="O=C1Nc2ccccc2C1=Cc1ccc2c(/C=C/c3ccccn3)n[nH]c2c1 (mixture of isomers)" endpoint_name="inhibition at 10 µM" endpoint_result=91
compound=O=C1Nc2ccccc2/C1=C\c1ccc2cn[nH]c2c1 endpoint_name="inhibition at 10 µM" endpoint_result=5
compound="COc1ccc2c(c1)C(=Cc1ccc3c(-c4ccc(N5CCN(C)CC5)nc4)n[nH]c3c1)C(=O)N2 (mixture of isomers)" endpoint_name="inhibition at 10 µM" endpoint_result=13

P = O=C1Nc2ccccc2/C1=C\c1ccc2[nH]nnc2c1
Q = O=C1Nc2ccccc2/C1=C\c1ccc2c(/C=C/c3ccccc3Cl)n[nH]c2c1
Hi there! Just curious which has the higher inhibition at 10 µM between P and Q . Pick one and reply with its label. Q
